Data origin, for the record: the RNAGym collection of RNA variant scans (doi:10.7554/elife.90254)

B1: OR4K15 (parent)
chain: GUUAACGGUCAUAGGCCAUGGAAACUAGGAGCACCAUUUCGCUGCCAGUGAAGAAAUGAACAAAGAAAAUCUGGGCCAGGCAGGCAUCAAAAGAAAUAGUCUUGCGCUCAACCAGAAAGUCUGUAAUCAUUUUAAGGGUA

Variants of: B1
assay.notes: self-cleavage, relative activity (ratio to wild type); higher = more cleavage; in vitro, sequencing; the parent is a self-cleaving ribozyme
assay.readout: self-cleavage

Answered examples (4):
Give its self-cleavage value. Item: `GUUAACGGACAUAGGCCAUGGAAACUAGGAGCACCAUUUCGCUGCCAGUGAAGAGAUGAACAAAGAAAAUCUGGGCCAGGCAGGCAUCAAAAGAAAUAGUCUUGCGCUCAACCAGAAAGUCUGUAAUCAUUUUAAGGGUA`
0.81

Give its self-cleavage value. Item: `GUUAACGGUCAAAGGCCAUGGAAACUAGGAGCACCAUUUCGCUGCCAGUGUAGAAAUGAACAAAGAAAAUCUGGGCCAGGCAGGCAUCAAAAGAAAUAGUCUUGCGCUCAACCAGAAAGUCUGUAAUCAUUUUAAGGGUA`
1.05

Give its self-cleavage value. Item: `GUUAACGGUCAUAGGCCAUGGAAACUAGGAGCACCAUUUCGCUGCCAGUGAAGAAAUGAACAAAGAAAAUCUGGGCCAGGCAGGCAUCAAAAGAAACAGUCUUGCGCUCAACCAGAAAGUCUGCAAUCAUUUUAAGGGUA`
0.17

Give its self-cleavage value. Item: `GUUAACGGUCAUAGGCCAUGGAAACUAGGAGCACCAUUUCGCUGCCAGUGGAGAAAUGAAGAAAGAAAAUCUGGGCCAGGCAGGCAUCAAAAGAAAUAGUCUUGCGCUCAACCAGAAAGUCUGUAAUCAUUUUAAGGGUA`
0.99

Give me self-cleavage for each of these variants, listed below.
1. GUUAACGGUCAUAGGCCAAGGAAACUAGGAGCACCAUUUCGCUGCCAGUGAAGAAAUGAACAAAGAAAAUCUGGGCCAGGCAGGCAUCAAAAGAAAUAGUCUUGCGCUCAACCAGAAAGUCUGCAAUCAUUUUAAGGGUA
2. GUUAACGGUCAUAGGCCAUGGAAACUAGGAGCACCAUUUUGCUGCCAGUGAAGAAAUGAACAAAGAAAAUCUGGGCCAGGCAGGCAUCAAAAGAAAUAGUCUUGCGCUCAACCAGAAAGUCUGUAAUCACUUUAAGGGUA

1. 0.9
2. 0.46

Give me self-cleavage for each of these variants, listed below.
1. GUUAACGGUCAUAGGCCAUGGAAACUAGGAGCACCAUUUCGCUGCUAGUGAAGAAAUGAACAAAGAAAAUCUGGGCCAGGCAGGCAUCAAAAGAAAUAGUCUUGCGCUCAACCAGAAAGUCUGUAAUCAUUUUAAGGAUA
2. GAUAACGGUCAUAGGCCAUGGAAACUAGGAGCACCAUUUCGCUGCCAGUGAAGAAAUGAACAAAGAAAAUCUGGGCCAGGCAGGCAUCGAAAGAAAUAGUCUUGCGCUCAACCAGAAAGUCUGUAAUCAUUUUAAGGGUA
3. GUUAACGGUCAUAGGCCAUGGAAACUAGUAGCACCAUUUCGCUGCCAGUGAAGAAAUGAACAGAGAAAAUCUGGGCCAGGCAGGCAUCAAAAGAAAUAGUCUUGCGCUCAACCAGAAAGUCUGUAAUCAUUUUAAGGGUA
4. GUUAACGGUCAUACGCCAUGGAAACUAGGAGCACCAUUUCGCUGCCAGUGGAGAAAUGAACAAAGAAAAUCUGGGCCAGGCAGGCAUCAAAAGAAAUAGUCUUGCGCUCAACCAGAAAGUCUGUAAUCAUUUUAAGGGUA

1.91
1.07
2.9
1.01
